FYI, the data here is from paper PMC9246016.

Target: recombinant human CYP2C8 (RHCYP2C8) (Homo sapiens, UniProt P10632)
Sequence (P10632 1-490): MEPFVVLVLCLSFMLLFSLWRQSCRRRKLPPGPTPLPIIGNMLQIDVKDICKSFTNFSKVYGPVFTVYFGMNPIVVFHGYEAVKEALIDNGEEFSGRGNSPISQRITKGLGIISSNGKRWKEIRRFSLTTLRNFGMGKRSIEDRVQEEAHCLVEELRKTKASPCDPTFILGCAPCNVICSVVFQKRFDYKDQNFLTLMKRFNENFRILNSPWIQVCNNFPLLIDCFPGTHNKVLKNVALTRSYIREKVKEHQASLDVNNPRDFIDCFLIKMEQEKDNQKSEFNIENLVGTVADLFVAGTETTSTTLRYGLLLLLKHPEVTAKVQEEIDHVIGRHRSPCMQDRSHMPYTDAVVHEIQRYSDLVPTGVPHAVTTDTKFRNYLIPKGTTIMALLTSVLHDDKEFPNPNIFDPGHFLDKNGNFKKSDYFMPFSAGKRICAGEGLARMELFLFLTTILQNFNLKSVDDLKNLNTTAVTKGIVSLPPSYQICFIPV
Experiment: Inhibition of RHCYP2C8 yeast microsomes, probe substrate amodiaquine
ASSAY ENDPOINT: pIC50
Remember the convention: pIC50 equals -log10 of concentration in molar.

Enquiry: Fill in pIC50 for COc1cc(-c2oc3cc(O)cc(O)c3c(=O)c2O)ccc1O [isorhamnetin] tested with recombinant human CYP2C8 (RHCYP2C8) (Homo sapiens, UniProt P10632).
Return: 4.92

--- query ---
Enquiry: Print recombinant human CYP2C8 (RHCYP2C8) (Homo sapiens, UniProt P10632) pIC50 for O=c1c(O)c(-c2ccc(O)cc2)oc2cc(O)cc(O)c12 [kaempferol] .
Return: 5.12

====

test: Pharmacokinetics of ROS with single-dose GLT in rats; details: male, Sprague-Dawley, rat, plasma, po, 10 mg/kg, AUC0-t, ROS 10 mg/kg oral, single-dose GLT 200 mg/kg
ASSAY ENDPOINT: AUC(0-t) (µg·h/mL)
Reply numerically in µg·h/mL, unit not repeated.

Enquiry: Return the recorded AUC(0-t) value; entry: CN(CCOc1ccc(CC2SC(=O)NC2=O)cc1)c1ccccn1 (stereo not shown)
Return: 139

====

assay: Pharmacokinetics of ROS with single-dose GLT in rats; conditions: male, Sprague-Dawley, rat, plasma, po, 10 mg/kg, Tmax, ROS 10 mg/kg oral, control (vehicle), single dose
ASSAY ENDPOINT: Tmax (min)
The response must be a number in min with no trailing unit.

Enquiry: State, in one line, measured Tmax of CN(CCOc1ccc(CC2SC(=O)NC2=O)cc1)c1ccccn1 (stereo not shown) [ROS, Rosiglitazone]
Return: 54

====

test: Pharmacokinetics of ROS after 10-day multiple-dose GLT in rats; format: in vivo, Sprague-Dawley rats; conditions: male, Sprague-Dawley, rat, plasma, po, 10 mg/kg, ROS 10 mg/kg oral, multiple-dose GLT 200 mg/kg for 10 days
ASSAY ENDPOINT: MRT

Enquiry: Give me measured MRT, please, for this compound: CN(CCOc1ccc(CC2SC(=O)NC2=O)cc1)c1ccccn1 (stereo not shown)
Return: 2.13 h

====

experiment: Pharmacokinetics of ROS with single-dose GLT in rats; details: male, Sprague-Dawley, rat, plasma, po, 10 mg/kg, Cmax, ROS 10 mg/kg oral, single-dose GLT 200 mg/kg
ASSAY ENDPOINT: Cmax (ng/mL)
Your answer should be a plain number; it is taken to be in ng/mL.

Enquiry: State its Cmax for this molecule: CN(CCOc1ccc(CC2SC(=O)NC2=O)cc1)c1ccccn1 (stereo not shown) [ROS, Rosiglitazone]
Return: 26000

====

experiment: Pharmacokinetics of ROS after 10-day multiple-dose GLT in rats; assay type: in vivo, Sprague-Dawley rats; conditions: male, Sprague-Dawley, rat, plasma, po, 10 mg/kg, ROS 10 mg/kg oral, multiple-dose GLT 200 mg/kg for 10 days
ASSAY ENDPOINT: AUC(0-t) (ng·h/mL)
Quick note: give the figure in ng·h/mL, leave out the unit.

Enquiry: Indicate the recorded AUC(0-t) value for this molecule: CN(CCOc1ccc(CC2SC(=O)NC2=O)cc1)c1ccccn1 (stereo not shown)
Return: 66600

====

experiment: Pharmacokinetics of ROS after 10-day multiple-dose GLT in rats; type: in vivo, Sprague-Dawley rats; settings: male, Sprague-Dawley, rat, plasma, po, 10 mg/kg, ROS 10 mg/kg oral, control (vehicle 10 days)
ASSAY ENDPOINT: MRT (h)
Kindly answer with a numeric value in h, unit omitted.

Enquiry: Give a short answer stating reported MRT for CN(CCOc1ccc(CC2SC(=O)NC2=O)cc1)c1ccccn1 (stereo not shown) [ROS, Rosiglitazone] .
Return: 3.27

====

assay: Pharmacokinetics of ROS after 10-day multiple-dose GLT in rats; type: in vivo, Sprague-Dawley rats; conditions: male, Sprague-Dawley, rat, plasma, po, 10 mg/kg, ROS 10 mg/kg oral, control (vehicle 10 days)
ASSAY ENDPOINT: Tmax (min)
Respond with the bare value in min.

Enquiry: Input CN(CCOc1ccc(CC2SC(=O)NC2=O)cc1)c1ccccn1 (stereo not shown) [ROS, Rosiglitazone] , output reported Tmax.
Return: 47.4
